- System Under Test: UniProt Q9NR96
- Protocol Description: TLR9 inhibition reporter assay (HEK-Blue cells, SEAP reporter, ODN2006 stimulation)
- Settings: TLR9 IC50, HEK-Blue cells overexpressing human TLR9, ODN2006 5 nM
pIC50: −log10 of the molar value.
Test Readout: pIC50

[
  {
    "Compound": "Cc1cc(-c2[nH]c3ccc(C4CCN(C(=O)CO)CC4)cc3c2C(C)C)cc(C)n1",
    "pIC50": 4.49
  },
  {
    "Compound": "Cc1cc(-c2[nH]c3ccc(C4CCN(CC(=O)N(C)C5CCOCC5)CC4)cc3c2C(C)C)cc(C)n1",
    "pIC50": 6.48
  },
  {
    "Compound": "Cc1cc(-c2[nH]c3ccc(C4CCN(C(=O)CNCC(C)(C)N5CCOCC5)CC4)cc3c2C(C)C)cc(C)n1",
    "pIC50": 6.62
  },
  {
    "Compound": "CCOCCNC(=O)CN1CCC(c2ccc3[nH]c(-c4cc(C)nc(C)c4)c(C(C)C)c3c2)CC1",
    "pIC50": 5.96
  },
  {
    "Compound": "Cc1c(-c2[nH]c3ccc(C4CCNCC4)cc3c2C(C)C)ccnc1N",
    "pIC50": 6.51
  }
]

[P] Cc1cc(-c2[nH]c3ccc(C4CCN(CC(=O)N5CCC[C@H](O)C5)CC4)cc3c2C(C)C)cc(C)n1
[Q] Cc1cc(-c2[nH]c3ccc(C4CCN(CC(=O)N5CC[C@H](O)C5)CC4)cc3c2C(C)C)cc(C)n1
Exercise: Field: entry with larger pIC50 (options P / Q ). Lab note: record the label of whichever item you select.
Solution: Q

[A] Cc1cc(-c2[nH]c3ccc(C4CCN(C(=O)C5CC(=O)N(C)C5)CC4)cc3c2C(C)C)cc(C)n1 (single isomer, unassigned) [Example 101]
[B] Cc1cc(-c2[nH]c3ccc(C4CCN(C(=O)C5CC(=O)N(C)C5)CC4)cc3c2C(C)C)cc(C)n1 (stereo not drawn) [Example 100]
Exercise: Select the item whose pIC50 value is smaller, choosing between A and B . Lab note: record the label of whichever item you select.
Solution: A

###

- System Under Test: human TLR8 (Homo sapiens (Human), UniProt Q9NR97)
- Sequence (Q9NR97 27-1041): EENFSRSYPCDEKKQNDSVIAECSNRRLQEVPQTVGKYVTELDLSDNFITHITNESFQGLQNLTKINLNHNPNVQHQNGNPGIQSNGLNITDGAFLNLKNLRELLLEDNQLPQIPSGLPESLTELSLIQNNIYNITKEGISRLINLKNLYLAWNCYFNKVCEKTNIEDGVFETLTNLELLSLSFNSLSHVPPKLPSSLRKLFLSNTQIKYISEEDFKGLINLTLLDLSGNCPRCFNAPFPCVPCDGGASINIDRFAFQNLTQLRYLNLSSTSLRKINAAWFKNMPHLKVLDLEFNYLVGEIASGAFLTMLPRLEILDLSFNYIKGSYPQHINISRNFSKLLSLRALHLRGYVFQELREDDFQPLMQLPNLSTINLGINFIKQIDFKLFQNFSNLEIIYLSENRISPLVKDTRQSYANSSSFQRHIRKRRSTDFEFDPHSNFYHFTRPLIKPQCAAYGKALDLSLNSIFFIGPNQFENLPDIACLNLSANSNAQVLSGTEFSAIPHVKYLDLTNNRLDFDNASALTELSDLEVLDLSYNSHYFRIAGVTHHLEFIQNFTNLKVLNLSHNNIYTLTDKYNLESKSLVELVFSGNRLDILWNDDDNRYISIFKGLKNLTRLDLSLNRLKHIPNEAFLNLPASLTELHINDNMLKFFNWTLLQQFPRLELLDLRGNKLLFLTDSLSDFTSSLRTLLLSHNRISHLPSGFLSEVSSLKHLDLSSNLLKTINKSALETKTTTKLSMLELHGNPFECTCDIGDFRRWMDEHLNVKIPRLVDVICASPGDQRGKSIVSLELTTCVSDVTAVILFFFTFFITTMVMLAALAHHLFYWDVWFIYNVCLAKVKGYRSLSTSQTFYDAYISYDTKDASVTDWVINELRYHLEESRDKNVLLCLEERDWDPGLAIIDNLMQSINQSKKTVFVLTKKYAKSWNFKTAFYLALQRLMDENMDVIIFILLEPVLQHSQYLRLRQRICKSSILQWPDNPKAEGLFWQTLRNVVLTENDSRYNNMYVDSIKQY
- Protocol Description: TLR8 inhibition reporter assay (HEK-Blue cells, SEAP reporter, R848 stimulation);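 also: compounds tested from 0.05 nM to 50 µM, 22 h at 37 °C, SEAP measured with HEK-Blue Detection, inhibition relative to agonist plus DMSO versus a known inhibitor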
- Settings: read-out: TLR8 IC50, HEK-Blue cells overexpressing human TLR8, R848 15.9 μM
Test Readout: IC50 (nM)

Past entries and their recorded results:
[
  {
    "Compound": "COCCN(C)CC(=O)N1CCC(c2ccc3[nH]c(-c4cc(C)nc(C)c4)c(C(C)C)c3c2)CC1",
    "Measure Unit": "nM",
    "IC50": 9.8
  },
  {
    "Compound": "Cc1cc(-c2[nH]c3ccc(C4CCN(C(=O)CCn5ccnc5C)CC4)cc3c2C(C)C)cc(C)n1",
    "Measure Unit": "nM",
    "IC50": 10.1
  }
]

[I] Cc1cc(-c2[nH]c3ccc(C4CCN(C(=O)CN5CCCC(C)C5)CC4)cc3c2C(C)C)cc(C)n1 (stereo not shown)
[II] Cc1cc(-c2[nH]c3ccc(C4CCN(C(=O)CN5C(=O)CN(C)C5=O)CC4)cc3c2C(C)C)cc(C)n1
Exercise: Select the item whose IC50 value is smaller, choosing between I and II . Lab note: record the label of whichever item you select.
Solution: I
(I: 11.8 nM, II: 35.8 nM)

###

- System Under Test: human TLR8 (Homo sapiens (Human))
- Protocol Description: TLR8 inhibition reporter assay (HEK-Blue cells, SEAP reporter, R848 stimulation)
- Settings: read-out: TLR8 IC50, HEK-Blue cells overexpressing human TLR8, R848 15.9 μM
pIC50: −log10 of the molar value.
Test Readout: pIC50

Past entries and their recorded results:
[
  {
    "Molecule": "Cc1cc(-c2[nH]c3ccc(C4CCN(CC(=O)N5CCCC5)CC4)cc3c2C(C)C)cc(C)n1",
    "System Under Test": "human TLR8 (Homo sapiens (Human))",
    "pIC50": 7.61
  },
  {
    "Molecule": "CNC(=O)CN1CCC(c2ccc3[nH]c(-c4cc(C)nc(F)c4)c(C(C)C)c3c2)CC1",
    "System Under Test": "human TLR8 (Homo sapiens (Human))",
    "pIC50": 5.91
  }
]

[P] Cc1cc(-c2[nH]c3ccc(C4CCN(C(=O)C5(C(F)(F)F)CC5)CC4)cc3c2C(C)C)ccn1
[Q] CCc1c(-c2ccnc(NC(C)=O)c2)[nH]c2ccc(C3CCN(C4CCN(CC(C)C)CC4)CC3)cc12
Exercise: Select the item whose pIC50 value is smaller, choosing between P and Q . Lab note: record the label of whichever item you select.
Solution: Q

###

- System Under Test: human TLR7 (Homo sapiens (Human), UniProt Q9NYK1)
- Sequence (Q9NYK1 27-1049): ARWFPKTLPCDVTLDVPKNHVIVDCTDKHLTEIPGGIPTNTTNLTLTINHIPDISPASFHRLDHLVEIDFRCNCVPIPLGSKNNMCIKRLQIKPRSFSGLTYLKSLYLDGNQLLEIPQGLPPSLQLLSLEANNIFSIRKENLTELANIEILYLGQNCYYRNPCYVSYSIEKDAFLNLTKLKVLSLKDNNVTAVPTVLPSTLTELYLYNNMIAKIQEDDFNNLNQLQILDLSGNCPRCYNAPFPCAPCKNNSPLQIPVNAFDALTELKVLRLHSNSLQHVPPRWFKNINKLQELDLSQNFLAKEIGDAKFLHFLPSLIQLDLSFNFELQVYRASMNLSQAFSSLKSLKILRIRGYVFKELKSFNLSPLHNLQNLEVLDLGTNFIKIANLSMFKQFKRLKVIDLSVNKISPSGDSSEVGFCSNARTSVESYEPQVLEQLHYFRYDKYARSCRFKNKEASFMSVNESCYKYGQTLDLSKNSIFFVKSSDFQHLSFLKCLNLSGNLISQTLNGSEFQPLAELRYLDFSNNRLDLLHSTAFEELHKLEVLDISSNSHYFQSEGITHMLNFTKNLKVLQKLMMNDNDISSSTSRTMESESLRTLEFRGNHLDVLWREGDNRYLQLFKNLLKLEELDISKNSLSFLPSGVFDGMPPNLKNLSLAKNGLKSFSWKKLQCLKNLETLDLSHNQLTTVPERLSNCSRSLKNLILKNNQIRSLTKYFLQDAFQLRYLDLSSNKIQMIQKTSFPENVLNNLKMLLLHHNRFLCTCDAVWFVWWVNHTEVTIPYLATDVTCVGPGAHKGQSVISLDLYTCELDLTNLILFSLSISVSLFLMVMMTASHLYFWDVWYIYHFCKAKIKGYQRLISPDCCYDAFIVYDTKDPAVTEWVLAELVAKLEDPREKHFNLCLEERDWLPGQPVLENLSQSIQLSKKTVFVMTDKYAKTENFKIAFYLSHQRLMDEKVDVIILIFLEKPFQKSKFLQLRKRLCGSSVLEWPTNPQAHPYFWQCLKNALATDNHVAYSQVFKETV
- Protocol Description: TLR7 inhibition reporter assay (HEK-Blue cells, SEAP reporter, gardiquimod stimulation)
- Type: cell-based
- Settings: HEK-Blue cells overexpressing human TLR7, gardiquimod 7.5 μM
Test Readout: IC50 (nM)

[I] Cc1cc(-c2[nH]c3ccc(C4CCN(C(=O)CCN5CCOCC5)CC4)cc3c2C(C)C)cc(C)n1
[II] CCc1c(-c2ccnc(OC(F)F)c2)[nH]c2ccc(C3CCN(C4CCN(CC(C)C)CC4)CC3)cc12 [Example 775]
Exercise: Field: entry with larger IC50 (options I / II ). Lab note: record the label of whichever item you select.
Solution: II
(II: 5660 nM, I: 3.9 nM)

###

- System Under Test: human TLR7 (Homo sapiens (Human))
- Protocol Description: TLR7 inhibition reporter assay (HEK-Blue cells, SEAP reporter, gardiquimod stimulation)
- Assay type: cell-based
- Settings: HEK-Blue cells overexpressing human TLR7, gardiquimod 7.5 μM
Test Readout: IC50 (nM)

Past entries and their recorded results:
[
  {
    "Molecule": "Cc1cc(-c2[nH]c3ccc(C4CCN(Cc5cc(C)on5)CC4)cc3c2C(C)C)c(F)cn1",
    "System Under Test": "human TLR7 (Homo sapiens (Human))",
    "Measure Unit": "nM",
    "IC50": 35.2
  },
  {
    "Molecule": "CC(C)c1c(-c2ccnc(F)c2)[nH]c2ccc(C3CCN(C(=O)CN(C)C)CC3)cc12",
    "System Under Test": "human TLR7 (Homo sapiens (Human))",
    "Measure Unit": "nM",
    "IC50": 23.6
  },
  {
    "Molecule": "CCCN1CCC(c2ccc3[nH]c(-c4cc(C)nc(C)c4)c(C(C)C)c3c2)CC1",
    "System Under Test": "human TLR7 (Homo sapiens (Human))",
    "Measure Unit": "nM",
    "IC50": 1.4
  },
  {
    "Molecule": "Cc1cc(-c2[nH]c3ccc(C4CCNCC4)cc3c2C(C)C)c(C)cn1",
    "System Under Test": "human TLR7 (Homo sapiens (Human))",
    "Measure Unit": "nM",
    "IC50": 2.6
  },
  {
    "Molecule": "Cc1cnccc1-c1[nH]c2ccc(C3CCNCC3)cc2c1C(C)C",
    "System Under Test": "human TLR7 (Homo sapiens (Human))",
    "Measure Unit": "nM",
    "IC50": 97
  },
  {
    "Molecule": "Cc1cc(-c2[nH]c3ccc(C4CCN(C(=O)CN(C)C)CC4)cc3c2C(C)C)ccn1",
    "System Under Test": "human TLR7 (Homo sapiens (Human))",
    "Measure Unit": "nM",
    "IC50": 20
  }
]

[I] Cc1cc(-c2[nH]c3ccc(C4CCN(C(=O)Cc5cc(N)n[nH]5)CC4)cc3c2C(C)C)cc(C)n1
[II] Cc1cc(-c2[nH]c3ccc(C4CCN(C5CCN(C(C)C)CC5)CC4)cc3c2CC(F)F)cc(C)n1
Exercise: Select the item whose IC50 value is smaller, choosing between I and II . Lab note: record the label of whichever item you select.
Solution: I
(I: 5.7 nM, II: 11.8 nM)

###

- System Under Test: human TLR9 (Homo sapiens (Human), UniProt Q9NR96)
- Sequence (Q9NR96 26-1032): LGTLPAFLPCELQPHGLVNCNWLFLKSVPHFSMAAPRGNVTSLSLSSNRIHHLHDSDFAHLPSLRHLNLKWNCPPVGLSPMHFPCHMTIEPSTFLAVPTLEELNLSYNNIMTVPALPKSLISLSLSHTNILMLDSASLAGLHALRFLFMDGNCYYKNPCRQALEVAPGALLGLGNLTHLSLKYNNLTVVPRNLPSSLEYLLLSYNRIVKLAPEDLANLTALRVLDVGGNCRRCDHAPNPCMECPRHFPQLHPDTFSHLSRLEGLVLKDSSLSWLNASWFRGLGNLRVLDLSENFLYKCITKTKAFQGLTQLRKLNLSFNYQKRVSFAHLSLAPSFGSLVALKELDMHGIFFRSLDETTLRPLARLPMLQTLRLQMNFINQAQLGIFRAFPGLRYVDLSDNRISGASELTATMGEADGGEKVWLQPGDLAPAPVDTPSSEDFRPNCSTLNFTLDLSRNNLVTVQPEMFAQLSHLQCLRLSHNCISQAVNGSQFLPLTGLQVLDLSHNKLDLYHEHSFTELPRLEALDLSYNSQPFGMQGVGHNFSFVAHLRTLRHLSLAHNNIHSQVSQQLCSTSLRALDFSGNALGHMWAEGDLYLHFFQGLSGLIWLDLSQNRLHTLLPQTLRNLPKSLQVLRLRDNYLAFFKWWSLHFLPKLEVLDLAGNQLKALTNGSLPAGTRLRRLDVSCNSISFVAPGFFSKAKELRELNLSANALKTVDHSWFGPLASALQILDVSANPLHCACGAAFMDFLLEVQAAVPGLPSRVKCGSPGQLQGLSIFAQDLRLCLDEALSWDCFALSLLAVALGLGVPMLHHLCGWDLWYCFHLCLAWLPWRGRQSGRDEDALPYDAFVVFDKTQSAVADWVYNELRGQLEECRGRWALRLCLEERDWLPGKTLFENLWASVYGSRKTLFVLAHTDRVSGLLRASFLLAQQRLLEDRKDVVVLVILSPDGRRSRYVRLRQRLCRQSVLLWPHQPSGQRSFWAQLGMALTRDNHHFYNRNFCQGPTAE
- Protocol Description: TLR9 inhibition reporter assay (HEK-Blue cells, SEAP reporter, ODN2006 stimulation);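 also: compounds tested over 0.05 nM to 50 µM, 22 h incubation, inhibition taken as SEAP signal drop from agonist plus DMSO wells toward a known inhibitor control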
- Settings: read-out: TLR9 IC50, HEK-Blue cells overexpressing human TLR9, ODN2006 5 nM
pIC50: −log10 of the molar value.
Test Readout: pIC50

[
  {
    "Compound": "Cc1cc(-c2[nH]c3ccc(C4CCN(C(=O)CN5CCCC(F)(F)C5)CC4)cc3c2C(C)C)cc(C)n1",
    "Observed Measurement": 4.59
  }
]

[a] Cc1cc(-c2[nH]c3ccc(C4CCN(CC(=O)N(C)CCC5(O)CCCC5)CC4)cc3c2C(C)C)cc(C)n1
[b] CCCN(CCO)C(=O)CN1CCC(c2ccc3[nH]c(-c4cc(C)nc(C)c4)c(C(C)C)c3c2)CC1
[c] Cc1cc(-c2[nH]c3ccc(C4CCN(CC(=O)N(C)C5CCOC5)CC4)cc3c2C(C)C)cc(C)n1 (stereo not shown)
[d] CCC(CC)NC(=O)CN1CCC(c2ccc3[nH]c(-c4cc(C)nc(C)c4)c(C(C)C)c3c2)CC1
Exercise: Sort entries by pIC50 from minimum to maximum value. Use the labels to give the requested order.
Solution: b, d, c, a

[a] Cc1cc(-c2[nH]c3ccc(C4CCN(C(=O)CCC5CCNCC5)CC4)cc3c2C(C)C)ccn1
[b] Cc1cc(-c2[nH]c3ccc(C4CCNCC4)cc3c2C(C)C)cc(C2CC2)n1
Exercise: Select the item whose pIC50 value is smaller, choosing between a and b . Lab note: record the label of whichever item you select.
Solution: b
(b: 5.88, a: 6.24)

[I] Cc1cc(-c2[nH]c3ccc(C4CCN(C(=O)Cn5nnnc5C)CC4)cc3c2C(C)C)cc(C)n1
[II] Cc1cc(-c2[nH]c3ccc(C4CCN(C(=O)CN(C)CCO)CC4)cc3c2C(C)C)cc(C)n1
Exercise: Select the item whose pIC50 value is smaller, choosing between I and II . Lab note: record the label of whichever item you select.
Solution: I
(I: 4.61, II: 6.20)

[I] Cc1cc(-c2[nH]c3ccc(C4CCN(C(=O)CCN(C)CCO)CC4)cc3c2C(C)C)cc(C)n1
[II] Cc1cc(-c2[nH]c3ccc(C4CCN(C(=O)C(C)(C)C)CC4)cc3c2C(C)C)ccn1
[III] Cc1cc(-c2[nH]c3ccc(C4CCN(CC5CCN(C(C)C)CC5)CC4)cc3c2C(C)C)ccn1
[IV] CC(C)c1c(-c2ccncc2)[nH]c2ccc(C3CCN(C(=O)CN(C)C)CC3)cc12
Exercise: Thanks in advance: please rank these 4 entries by pIC50, highest to lowest. Use the labels to give the requested order.
Solution: III, I, IV, II
(III: 7.00, I: 6.67, IV: 5.55, II: 4.47)

[A] Cc1ccc(CN2CCC(c3ccc4[nH]c(-c5cc(C)nc(C)c5)c(C(C)C)c4c3)CC2)cn1
[B] Cc1cc(-c2[nH]c3ccc(C4CCN(CC(=O)N[C@H](CO)CC(C)C)CC4)cc3c2C(C)C)cc(C)n1
[C] Cc1cc(-c2[nH]c3ccc(C4CCN(C(=O)CN(C)CCC#N)CC4)cc3c2C(C)C)c(F)cn1
[D] Cc1cc(-c2[nH]c3cc(F)c(C4CCNCC4)cc3c2C(C)C)cc(C)n1
[E] Cc1cc(-c2[nH]c3ccc(C4CCN(C(=O)c5ccncc5)CC4)cc3c2C(C)C)cc(C)n1
Exercise: Thanks in advance: please rank these 5 entries by pIC50, highest to lowest. Use the labels to give the requested order.
Solution: D, A, B, C, E

[1] CCc1c(-c2ccnc(C)c2)[nH]c2ccc(C3CCN(C(=O)C4(C)CCNCC4)CC3)cc12
[2] CCc1c(-c2ccnc(N)c2)[nH]c2ccc([C@@H]3CCNC[C@H]3F)cc12
[3] Cc1cc(-c2[nH]c3ccc(C4CCN(CC(O)c5ccccc5)CC4)cc3c2C(C)C)ccn1 (stereo not shown)
[4] COc1cc(-c2[nH]c3ccc(C4CCNCC4)cc3c2C(C)C)c(F)cn1
[5] Cc1cc(-c2[nH]c3ccc(C4CCN(CC5COC5)CC4)cc3c2C(C)C)c(F)cn1 [Example 646]
Exercise: Sort entries by pIC50 from minimum to maximum value. Use the labels to give the requested order.
Solution: 5, 4, 3, 2, 1

[I] Cc1cc(-c2[nH]c3ccc(C4CCN(C(=O)CNCCC(C)O)CC4)cc3c2C(C)C)cc(C)n1 (stereo not shown)
[II] Cc1cc(-c2[nH]c3cc(C)c(C4CCNCC4)cc3c2C(C)C)ccn1
Exercise: Select the item whose pIC50 value is smaller, choosing between I and II . Lab note: record the label of whichever item you select.
Solution: I
(I: 5.98, II: 6.74)

[A] Cc1cc(-c2[nH]c3ccc(C4CCN(CC(=O)N5CCC[C@@H]5CO)CC4)cc3c2C(C)C)cc(C)n1
[B] Cc1cc(-c2[nH]c3ccc(C4CCN(C(=O)CN5CCC[C@@H]5CO)CC4)cc3c2C(C)C)cc(C)n1
Exercise: Select the item whose pIC50 value is smaller, choosing between A and B . Lab note: record the label of whichever item you select.
Solution: A
(A: 5.90, B: 6.25)

The measurements presented in this section are drawn from patent US10660877B2.
